Method Notes: serotonin-gated TRPC4 signal block – cell-based, second counter screen, HEK293 TRPC4/5HT1a, Fluo-4, counter-screen for TRPC4 inhibitor project, confirmation (AID 434978)
Details: Fluo-4 calcium flux, at 10 µM, serotonin added to trigger calcium flux; active compounds read high
Calls of active or inactive are those of the source.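 The calls were made as follows: active = primary screen active whose calcium signal fell more than 3 SD beyond the full-serotonin control mean in both duplicate plates; inactive = the rest.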
Observation Type: inhibition

[[record]]
compound = "N/C(Cc1cccc2ccccc12)=N\\OC(=O)c1cccs1"
observed = "inactive"

[[record]]
compound = "Cc1cccc(CCN(C(=O)c2snc(C(N)=O)c2N)C(C(=O)NCC2CCCO2)c2ccc(F)cc2)c1 (stereo not given)"
observed = "46.3% (active)"

[[record]]
compound = "Clc1ccc(OCCCc2nc(-c3ccncc3)no2)c(Cl)c1"
observed = "30.7% (active)"

[[record]]
compound = "COc1ccc(-c2csc(NC(=O)Cc3cccc4ccccc34)c2C(=O)O)cc1"
observed = "40.2% (active)"

[[record]]
compound = "CCN(CC(=O)NCc1ccc(Cl)cc1)CC(=O)NC1(C#N)CCCC1"
observed = "inactive"

[[record]]
compound = "OCCNc1nc(Nc2ccccc2)nc2ccccc12"
observed = "inactive"

[[record]]
compound = "O=C(COc1ccc(Cl)cc1)Nc1ccc(C(=O)O)cc1NC(=O)COc1ccc(Cl)cc1"
observed = "inactive"

[[record]]
compound = "O=c1c2ccccc2nc(SCc2ccc([N+](=O)[O-])cc2)n1CCCO"
observed = "19.5% (active)"

[[record]]
compound = "CCOC(=O)c1c(C)n(-c2ccc(C)cc2)c2ccc(OCC(O)CNCC3CCCO3)cc12 (stereo not given)"
observed = "inactive"

[[record]]
compound = "Cc1onc(-c2c(F)cccc2Cl)c1C(=O)N(C)CC(=O)Nc1cccc(F)c1"
observed = "inactive"


====

Tested on: TRPC4 beta (transient receptor potential cation channel C4), mouse
Method Notes: potentiation of DAMGO EC20 TRPC4 response – cell-based, Fluo-4, HEK293 TRPC4beta/mu-opioid, confirmation (AID 2555)
Details: DAMGO EC20, Fluo-4 calcium flux, at 10 µM
Active and inactive are the calls of the source.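 Rule for the calls: active = primary screen hit whose calcium fluorescence ratio, in both repeats, exceeds the weak agonist control mean by 3 SD; inactive = the rest.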
Possible outcomes: True = active, False = inactive

[[record]]
structure_as_smiles = "O=C(CCN1CCN(Cc2ccccc2)CC1)Nc1ccc(OCc2ccccc2)cc1"
assigned_class = "True"

[[record]]
structure_as_smiles = "Cc1csc2c(N3CCN(C(=O)Nc4ccc(OC(F)(F)F)cc4)CC3)ncnc12"
assigned_class = "False"

[[record]]
structure_as_smiles = "O=C(O)CCCN1C(=O)/C(=C\\c2ccc(-c3nc4ccccc4s3)o2)SC1=S"
assigned_class = "True"

[[record]]
structure_as_smiles = "O=C(O)CCC(=O)N1CCN(c2nc3ccccc3s2)CC1"
assigned_class = "True"

[[record]]
structure_as_smiles = "CCCCN1/C(=C/c2ccc3ccccc3[n+]2CC)Sc2ccccc21"
assigned_class = "False"


====

Tested on: TRPC4 (mouse), co-expressed with 5HT1a in HEK293
Method Notes: enhancement of serotonin-evoked TRPC4 response – cell-based, second counter screen, HEK293 TRPC4/5HT1a, Fluo-4, counter-screen for TRPC4 potentiator project, confirmation (AID 434979)
Details: Fluo-4 calcium flux, at 10 µM, serotonin added at its EC20 dose
Calls of active or inactive are those of the source.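 The calls were made as follows: active = signal rise over 3 SD above mean of control wells given weak agonist, in both repeats and first screen; inactive = the rest.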
Labels: active, inactive

[[record]]
compound = "COc1ccc(C(CNC(=O)Cc2ccc(-c3ccccc3)cc2)N(C)C)cc1 (configuration not stated)"
assigned_class = "inactive"

[[record]]
compound = "Cn1c(C(=O)N[C@@H](C(=O)O)c2ccccc2)cc2cc(Cl)ccc21"
assigned_class = "inactive"

[[record]]
compound = "CN(C)CCCN(C(=O)c1ccc(S(=O)(=O)N2CCc3ccccc32)cc1)c1nc2ccc(F)cc2s1"
assigned_class = "inactive"

[[record]]
compound = "OCC(Cc1ccccc1)NCc1ccccc1C(F)(F)F (configuration not stated)"
assigned_class = "inactive"

[[record]]
compound = "c1ccc(Cn2nnc3cnccc32)cc1"
assigned_class = "inactive"

[[record]]
compound = "O=[N+]([O-])c1ccc(S(=O)(=O)NCCCc2ccccc2)cc1"
assigned_class = "inactive"

[[record]]
compound = "CSC1=NC2(CCCCC2)C2=C(CCCC2)N1"
assigned_class = "inactive"

[[record]]
compound = "c1cnc(N2CCN(c3cnccn3)CC2)nc1"
assigned_class = "inactive"

[[record]]
compound = "CCCCN(C)CCNC(=O)c1c[nH]c2ccc(S(=O)(=O)N(CC)CC)cc2c1=O"
assigned_class = "active"

[[record]]
compound = "Cc1c(CCOC(=O)c2cccc([N+](=O)[O-])c2)sc[n+]1CC(=O)c1ccccc1"
assigned_class = "inactive"

[[record]]
compound = "COc1ccc(CCn2c(N)c(C#N)c3nc4ccccc4nc32)cc1OC"
assigned_class = "inactive"

[[record]]
compound = "N#CCCn1cc(CNCc2ccccc2)c(-c2cccc([N+](=O)[O-])c2)n1"
assigned_class = "inactive"

[[record]]
compound = "CCCOc1cccc(C(=O)NCCNC(=O)c2ccco2)c1"
assigned_class = "inactive"

[[record]]
compound = "Cc1cc(C)cc(NC(=S)N2CCN(c3ncc(C(F)(F)F)cc3Cl)CC2)c1"
assigned_class = "inactive"

[[record]]
compound = "Cc1nn(C(=O)CNS(=O)(=O)c2ccccc2)c(C)c1Sc1ccc(Cl)cc1"
assigned_class = "inactive"

[[record]]
compound = "Cc1cc(Br)c(NC(=O)CN(C)CCOc2ccccc2)c(Br)c1"
assigned_class = "inactive"

[[record]]
compound = "CN(CCNC(=O)c1ccc(/C=N/O)nc1)Cc1ccccc1"
assigned_class = "active"

[[record]]
compound = "CCCCCCc1cc2cc(-c3nnc(-c4cc(OC)c(OC)c(OC)c4)o3)c(=O)oc2cc1O"
assigned_class = "active"

[[record]]
compound = "CCCc1noc2c1/C(=N\\O)CC(CC(C)SCC)C2 (configuration not stated)"
assigned_class = "inactive"

[[record]]
compound = "CCOP(=O)(c1ccccc1)c1nc(-c2ccccc2Cl)oc1N1CCCCC1 (configuration not stated)"
assigned_class = "active"

[[record]]
compound = "COc1ccc([N+](=O)[O-])cc1NCc1ccco1"
assigned_class = "inactive"

[[record]]
compound = "Cc1cc2cc(CN(Cc3cccs3)C(=S)NCc3ccco3)c(=O)[nH]c2cc1C"
assigned_class = "inactive"

